Known pIC50 of a selection of molecules
Biological target: Prostaglandin G/H synthase 1 (Homo sapiens, UniProt P23219)
Sequence (P23219 whole entry): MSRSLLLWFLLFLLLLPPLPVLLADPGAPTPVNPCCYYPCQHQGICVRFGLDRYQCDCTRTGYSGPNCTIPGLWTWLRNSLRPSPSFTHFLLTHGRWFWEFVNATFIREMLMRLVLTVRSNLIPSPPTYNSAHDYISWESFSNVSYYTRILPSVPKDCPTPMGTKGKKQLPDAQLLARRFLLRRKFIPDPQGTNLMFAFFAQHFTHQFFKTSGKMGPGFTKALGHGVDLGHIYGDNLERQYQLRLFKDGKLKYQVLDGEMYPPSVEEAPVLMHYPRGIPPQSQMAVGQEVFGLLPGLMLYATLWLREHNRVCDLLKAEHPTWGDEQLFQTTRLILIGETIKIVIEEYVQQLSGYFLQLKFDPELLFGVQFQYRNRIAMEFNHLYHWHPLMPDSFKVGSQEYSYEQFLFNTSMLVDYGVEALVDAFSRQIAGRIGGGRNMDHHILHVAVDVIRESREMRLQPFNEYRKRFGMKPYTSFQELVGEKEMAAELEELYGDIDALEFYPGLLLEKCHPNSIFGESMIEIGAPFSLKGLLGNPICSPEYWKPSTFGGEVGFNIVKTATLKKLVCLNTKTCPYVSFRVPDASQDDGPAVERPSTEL
Please report pIC50 as the negative decimal logarithm of the molar concentration, giving only the number.

| Molecule | pIC50 |
| --- | --- |
| CS(=O)(=O)c1ccc(C2=C(c3ccc(F)c(F)c3)C(=O)OC2)cc1 | 4.82 |

Alright, here's another molecule for you.
What value of pIC50 has been recorded for this entry: CC(C(=O)O)c1ccc(CC2CCCC2=O)cc1 (configuration not stated)
5.19

###

Biological target: Prostaglandin G/H synthase 2 (Homo sapiens, UniProt P35354)
Sequence (P35354 whole entry): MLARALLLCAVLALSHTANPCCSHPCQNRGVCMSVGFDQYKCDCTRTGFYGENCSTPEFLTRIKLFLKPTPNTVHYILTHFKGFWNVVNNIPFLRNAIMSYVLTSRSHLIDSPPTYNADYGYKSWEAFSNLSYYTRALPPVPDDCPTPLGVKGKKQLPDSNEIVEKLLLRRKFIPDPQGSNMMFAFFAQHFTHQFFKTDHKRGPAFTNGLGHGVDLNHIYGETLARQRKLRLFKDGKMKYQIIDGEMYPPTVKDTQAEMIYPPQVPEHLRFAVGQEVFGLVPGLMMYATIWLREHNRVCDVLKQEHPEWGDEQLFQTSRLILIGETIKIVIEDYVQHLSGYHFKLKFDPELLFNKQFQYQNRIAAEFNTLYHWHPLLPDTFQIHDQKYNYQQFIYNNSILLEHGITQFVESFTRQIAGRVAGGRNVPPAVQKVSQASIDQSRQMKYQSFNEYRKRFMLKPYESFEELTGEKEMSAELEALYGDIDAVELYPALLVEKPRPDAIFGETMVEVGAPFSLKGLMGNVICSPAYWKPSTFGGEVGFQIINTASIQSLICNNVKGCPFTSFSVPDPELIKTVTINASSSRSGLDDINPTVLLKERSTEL
Measure: IC50 (nM)
Answer with a number only, understood to be in nM.

What value of IC50 has been recorded for this entry: `CS(=O)(=O)c1ccc(C2=C(c3ccc(F)c(F)c3)C(=O)OC2)cc1`
230

###

Measurement record for Prostaglandin G/H synthase 2 (Homo sapiens); quantity recorded: IC50.
Just so you know, I need the unit written after the number.

| Compound | IC50 |
| --- | --- |
| CS(=O)(=O)c1ccc(C2=C(c3ccc(F)c(F)c3)C(=O)OC2)cc1 | 0.48 µM |

What value of IC50 has been recorded for this entry: CC(C(=O)O)c1ccc(CC2CCCC2=O)cc1 (configuration not stated) [LOXOPROFEN]
13.5 µM

###

Known IC50 of a selection of compounds
Biological target: Prostaglandin G/H synthase 1 (Homo sapiens, UniProt P23219)
Test: Inhibitory activity against recombinant human prostaglandin G/H synthase 1

| Compound | Result |
| --- | --- |
| CC(C(=O)O)c1ccc(CC2CCCC2=O)cc1 (configuration not stated) [LOXOPROFEN] | > 100 µM |

Alright, here's another compound for you.
What value of IC50 has been recorded for this entry: `CS(=O)(=O)c1ccc(C2=C(c3ccc(F)c(F)c3)C(=O)OC2)cc1`
> 100 µM
